Experiment: log P by HPLC on reversed-phase column (C 18), EEC Directive 79/831 Annex V.A8
Type: physicochemical
Details: C 18 reversed phase, 40° C., 0.1% aqueous formic acid and acetonitrile gradient
VALUE_KIND: logP
Form field (numeric): enter value without unit.

* CCC(C1CCc2ccccc2C1)N(C(=O)c1c(C(F)F)nn(C)c1F)C1CC1 (stereo not drawn) [Example 17] | 4.41
* Cn1nc(C(F)F)c(C(=O)N(CC2Cc3ccccc3O2)C2CC2)c1Cl (stereo not drawn) [Example 21] | 3.04
* Cn1cc(C(=O)N(CC2Cc3ccccc3O2)C2CC2)c(C(F)F)n1 (stereo not drawn) [Example 18] | 2.54
* CCc1nn(C)c(F)c1C(=O)N(C1CC1)C(C)C1Cc2ccccc2C1 (stereo not drawn) [Example 12] | 3.67
* Cc1nn(C)c(F)c1C(=O)N(C1CC1)C(C)C1Cc2ccccc2C1 (stereo not drawn) [Example 11] | 3.25

Please turn your attention to the following entry.
Identify measured logP associated with Cn1nc(C(F)F)c(C(=O)N(CC2Cc3ccccc3O2)C2CC2)c1F (stereo not drawn) [Example 19] 2.86
